# reported pKi; entries follow
target: Recombinant Human Poly(ADP-Ribose) Polymerase (PARP), PARP-1 (Homo sapiens); assay: PARP Enzyme Inhibition Assay (PARP1, SPA/FlashPlate); conditions: 1 nM PARP enzyme, [3H]-NAD+, 200 nM biotinylated histone H1, 200 nM slDNA
In simple prose, pKi is minus the logarithm base ten of a concentration in moles per litre.

Recorded pKi, per entry:
[
  {
    "Compound": "NC(=O)c1cccc2nc(-c3ccc(-c4cccc(N)c4)cc3)oc12",
    "pKi": 5.49
  },
  {
    "Compound": "NC(=O)c1cccc2oc(-c3ccc(-c4ccccc4)cc3)nc12",
    "pKi": 5.04
  },
  {
    "Compound": "NC(=O)c1cccc2nc(-c3ccc(Br)cc3)oc12",
    "pKi": 7.32
  },
  {
    "Compound": "NC(=O)c1cccc2nc(-c3ccc(-c4ccc5c(c4)OCO5)cc3)oc12",
    "pKi": 6.08
  }
]

Entry "NC(=O)c1cccc2nc(-c3ccc(-c4cc[nH]n4)cc3)oc12" — recorded pKi = 6.96

Entry NC(=O)c1cccc2oc(-c3ccccc3)nc12 [Example 12, 2-phenyl-1,3-benzoxazole-4-carboxamide] — recorded pKi = 6.30

Entry "NC(=O)c1cccc2oc(-c3ccc(Br)cc3)nc12" — recorded pKi = 6.85

Entry "NC(=O)c1cccc2nc(-c3ccc(-c4ccccn4)cc3)oc12" — recorded pKi = 7.96

Entry "NC(=O)c1cccc2nc(-c3ccc(-c4ccccc4)cc3)oc12" — recorded pKi = 6.71

---

molecular target: Recombinant Human Poly(ADP-Ribose) Polymerase (PARP), PARP-1 (Homo sapiens, UniProt P09874); test: PARP Enzyme Inhibition Assay (PARP1, SPA/FlashPlate); conditions: 1 nM PARP enzyme, [3H]-NAD+, 200 nM biotinylated histone H1, 200 nM slDNA
Sequence (P09874 whole entry): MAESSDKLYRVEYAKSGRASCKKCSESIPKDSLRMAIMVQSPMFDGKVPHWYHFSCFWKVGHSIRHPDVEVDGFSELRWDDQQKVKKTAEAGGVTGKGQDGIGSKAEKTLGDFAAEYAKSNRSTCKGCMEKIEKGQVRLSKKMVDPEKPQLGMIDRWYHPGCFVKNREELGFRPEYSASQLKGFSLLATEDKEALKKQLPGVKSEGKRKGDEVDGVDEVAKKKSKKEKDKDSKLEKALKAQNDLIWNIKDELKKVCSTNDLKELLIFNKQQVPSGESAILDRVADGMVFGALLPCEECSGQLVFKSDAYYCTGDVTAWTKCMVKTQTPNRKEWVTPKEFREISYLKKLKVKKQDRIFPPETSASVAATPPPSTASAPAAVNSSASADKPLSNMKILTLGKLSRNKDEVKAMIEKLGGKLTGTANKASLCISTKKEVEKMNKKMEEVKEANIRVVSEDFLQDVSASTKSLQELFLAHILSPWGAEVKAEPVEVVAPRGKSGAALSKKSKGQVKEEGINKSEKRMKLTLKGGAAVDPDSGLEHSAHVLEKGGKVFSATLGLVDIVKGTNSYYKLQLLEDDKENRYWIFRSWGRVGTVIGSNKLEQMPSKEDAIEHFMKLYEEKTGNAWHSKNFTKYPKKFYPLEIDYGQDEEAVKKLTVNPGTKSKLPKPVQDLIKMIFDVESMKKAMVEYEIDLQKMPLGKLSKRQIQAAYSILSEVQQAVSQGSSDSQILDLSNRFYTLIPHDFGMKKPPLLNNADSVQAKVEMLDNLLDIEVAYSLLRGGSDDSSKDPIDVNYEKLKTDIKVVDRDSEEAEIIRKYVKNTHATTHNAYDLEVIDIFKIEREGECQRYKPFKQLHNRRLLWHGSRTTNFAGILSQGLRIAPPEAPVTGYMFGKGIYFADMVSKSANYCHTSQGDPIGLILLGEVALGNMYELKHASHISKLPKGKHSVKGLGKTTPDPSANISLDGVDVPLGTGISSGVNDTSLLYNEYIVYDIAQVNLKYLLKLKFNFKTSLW
# reported Ki; entries follow
Record the value in nM, omitting the unit from your answer.

Recorded Ki, per entry:
[
  {
    "Chemical Smiles": "NC(=O)c1cccc2nc(-c3ccc(-c4ccncc4)cc3)oc12",
    "Assay Result": 1620
  },
  {
    "Chemical Smiles": "NC(=O)c1cccc2oc(-c3ccc(-c4cccnc4)cc3)nc12",
    "Assay Result": 312
  }
]

Proceeding to the next compound to report its Ki.
Entry "NC(=O)c1cccc2nc(-c3ccc(-c4cccnc4)cc3)oc12" — recorded Ki = 63
